Please provide measured IC50 for the entries that follow.
- assay system: CREBBP bromodomain (His-CREBBP(1081-1197)) (Homo sapiens (Human), UniProt Q92793)
- Sequence (Q92793 1081-1197): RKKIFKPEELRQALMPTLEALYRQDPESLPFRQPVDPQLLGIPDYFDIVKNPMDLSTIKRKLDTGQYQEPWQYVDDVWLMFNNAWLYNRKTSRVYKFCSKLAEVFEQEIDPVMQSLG
- method: AlphaScreen in-vitro binding assay for CREBBP
- condition set: single determination or n ≧ 2 independent determinations, read-out: Biochemical IC50 CREBBP
The response must be a number in µM with no trailing unit.

Lookup result for Cc1cc(N2C(=O)c3nc(C)n(C(C)C)c3[C@H]2c2ccc(Cl)cc2)cc2c1nnn2C ; measured IC50: 4.35

Lookup result for Cc1cc(N2C(=O)c3nc(C4=CCOCC4)n(C(C)C)c3C2c2ccc(Cl)cc2)cn2c(CF)nnc12 (stereo not drawn) ; measured IC50: 15

Lookup result for COc1cc(N2C(=O)c3nc(C4CCN(C)CC4)n(C(C)C)c3C2c2ccc(Cl)cc2)cc2c1nnn2C (stereo not drawn) ; measured IC50: 15.7

Lookup result for COc1ncccc1-c1nc2c(n1C(C)C)C(=O)N(c1cc(C)c(=O)n(C)c1)C2c1ccc(Cl)cc1 (stereo not drawn) ; measured IC50: 1

Lookup result for Cc1cc(N2C(=O)c3nc(C4=CCN(C)CC4)[nH]c3C2c2ccc(Cl)cc2)cn(C)c1=O (stereo not drawn) ; measured IC50: 3.85

Lookup result for Cc1cc(N2C(=O)c3nc(-c4ncco4)n(C(C)C)c3C2c2ccc(Cl)cc2)cn2c(C)nnc12 (stereo not drawn) ; measured IC50: 16.1

Lookup result for Cc1cc(N2C(=O)c3nc(C4=CCOC4)n(C(C)C)c3C2c2ccc(Cl)cc2)cn2c(C)nnc12 (stereo not drawn) ; measured IC50: 5.7

Lookup result for Cc1cc(N2C(=O)c3nc(C4=CCN(C(=O)OC(C)C)CC4)n(C(C)C)c3C2c2ccc(Cl)cc2)cn2c(C)nnc12 (stereo not drawn) ; measured IC50: 4.3

Lookup result for Cc1cc(N2C(=O)c3nc(C4CC4)n(C(C)C)c3[C@H]2c2ccc(Cl)cc2)cn2c(C)nnc12 ; measured IC50: 1.45

Lookup result for COc1cc(N2C(=O)c3nc(C4CCOCC4)n(C(C)C)c3[C@H]2c2ccc(Cl)cc2)cc2c1nnn2C ; measured IC50: 9.75

Lookup result for Cc1cc(N2C(=O)c3nc(C4=CCOCC4)[nH]c3C2c2ccc(Cl)cc2)cn2c(C)nnc12 (stereo not drawn) ; measured IC50: 2.25

Lookup result for COc1ncc(-c2nc3c(n2C(C)C)C(c2ccc(Cl)cc2)N(c2cc(C)c4onc(C)c4c2)C3=O)c(OC)n1 (stereo not drawn) ; measured IC50: 1.67

Lookup result for Cc1cc(N2C(=O)c3nc(C)n(C(C)C)c3C2c2ccc(Cl)cc2)cn2c(C)nnc12 (stereo not drawn) ; measured IC50: 10.3

Lookup result for Cc1cc(N2C(=O)c3nc(C4=CCOCC4)n(C4COC4)c3C2c2ccc(Cl)cc2)cc2c1nnn2C (stereo not drawn) ; measured IC50: 2.7

Lookup result for Cc1ncc(-c2nc3c(n2C(C)C)C(c2ccc(Cl)cc2)N(c2cc(C)c(=O)n(C)c2)C3=O)s1 (stereo not drawn) ; measured IC50: 0.8

Lookup result for Cc1cc(N2C(=O)c3nc(C4=CC(C)(C)NC(C)(C)C4)n(C(C)C)c3C2c2ccc(Cl)cc2)cn2c(C)nnc12 (stereo not drawn) ; measured IC50: 6.4

Lookup result for COc1ccc(-c2nc3c([nH]2)[C@@H](c2ccc(Cl)cc2)N(c2cc(C)c(=O)n(C)c2)C3=O)cn1 ; measured IC50: 0.56
